# experimental.details: Plasma chemistry markers after subcutaneous administration in beagle dogs (Example 8)
# condition.info: 30 mg/kg subcutaneous days 1, 3, 5, 8, 15, 22, 29, plasma at day 31

[
  {
    "substance": "830025 (antisense TTTGTAAATCGAAAGC; 3-10-3 cEt gapmer, further chemistry not given here) [compound 830025]",
    "Albumin": "3.1 g/dL"
  },
  {
    "substance": "829994 (GGAGGCAGGGCCGCGA; 3-10-3 cEt gapmer, further chemistry not given here) [compound 829994]",
    "Albumin": "3.1 g/dL"
  },
  {
    "substance": "830037 (antisense CTATTGGCTGATCTGG; 3-10-3 cEt gapmer, further chemistry not given here) [compound 830037]",
    "Albumin": "3.7 g/dL"
  },
  {
    "substance": "798781 (CGTAAGATTCACAGCA; 3-10-3 cEt gapmer, further chemistry not given here) [compound 798781]",
    "Albumin": "3.0 g/dL"
  },
  {
    "substance": "790615 (CCAATGAGAATGCTTC; 3-10-3 cEt gapmer, further chemistry not given here) [compound 790615]",
    "Albumin": "3.4 g/dL"
  },
  {
    "substance": "830121 (AGAATCAAGCCCTGGC; 3-10-3 cEt gapmer, further chemistry not given here) [compound 830121]",
    "Albumin": "3.0 g/dL"
  }
]

====

# Tested on: human SMAD7 mRNA
# experimental.details: Dose-dependent inhibition of human SMAD7 mRNA expression in Hep3B cells (Example 3, Study 1 and 2)
# Assay type: cell-based
# condition.info: 740 nM, electroporation, approximately 16 hours, Study 2, relative to untreated control cells
Strand notation (5' to 3'): a small letter for the sugar, then the base; units joined by * are phosphorothioate-linked, units joined directly phosphodiester-linked; [ ] holds rarer units or linkages, { } end groups; capitals alone tell only the bases. k = constrained ethyl (cEt); [5mC] = 5-methylcytosine; d = 2'-deoxy (DNA)
Collected % inhibition of SMAD7 mRNA expression values appear next to each entry.
readout.name: % inhibition of SMAD7 mRNA expression (%)

[
  {
    "substance": "830044 (k[5mC]*kG*kA*dT*dT*dG*dG*d[5mC]*dA*dG*dG*dT*dT*kA*kA*kT; antisense) [compound 830044]",
    "readout.name": "% inhibition of SMAD7 mRNA expression",
    "assay.value": 47
  },
  {
    "substance": "830142 (antisense kT*kG*kT*dG*d[5mC]*dA*d[5mC]*d[5mC]*dA*dG*dG*dT*dG*kA*kG*k[5mC]) [compound 830142]",
    "readout.name": "% inhibition of SMAD7 mRNA expression",
    "assay.value": 13
  },
  {
    "substance": "798931 (antisense kG*kA*kG*dG*dA*dA*dA*dA*dT*dA*dT*dT*dA*kG*k[5mC]*kA) [compound 798931]",
    "readout.name": "% inhibition of SMAD7 mRNA expression",
    "assay.value": 0
  },
  {
    "substance": "799410 (antisense kT*k[5mC]*kT*dG*dT*dT*dT*dA*d[5mC]*dA*d[5mC]*dA*d[5mC]*kA*kT*kT) [compound 799410]",
    "readout.name": "% inhibition of SMAD7 mRNA expression",
    "assay.value": 26
  },
  {
    "substance": "800010 (kG*kT*kT*dA*dT*dT*dT*dA*dA*dT*dT*dA*d[5mC]*k[5mC]*k[5mC]*kT; antisense) [compound 800010]",
    "readout.name": "% inhibition of SMAD7 mRNA expression",
    "assay.value": 33
  },
  {
    "substance": "830138 (antisense kG*kG*kA*dG*dT*dT*dG*d[5mC]*dA*dT*dG*d[5mC]*d[5mC]*kT*kT*kT) [compound 830138]",
    "readout.name": "% inhibition of SMAD7 mRNA expression",
    "assay.value": 0
  },
  {
    "substance": "830135 (antisense kA*kA*kG*dT*dA*d[5mC]*dA*dA*dT*d[5mC]*dT*d[5mC]*d[5mC]*kT*kG*kG) [compound 830135]",
    "readout.name": "% inhibition of SMAD7 mRNA expression",
    "assay.value": 16
  },
  {
    "substance": "799722 (antisense kG*k[5mC]*kA*dG*dA*dG*dT*dG*dA*dG*dA*dA*d[5mC]*kA*kA*kG) [compound 799722]",
    "readout.name": "% inhibition of SMAD7 mRNA expression",
    "assay.value": 17
  },
  {
    "substance": "799366 (antisense kT*k[5mC]*kT*d[5mC]*d[5mC]*dG*dA*dG*dT*dT*dA*dT*d[5mC]*k[5mC]*k[5mC]*k[5mC]) [compound 799366]",
    "readout.name": "% inhibition of SMAD7 mRNA expression",
    "assay.value": 18
  },
  {
    "substance": "800048 (antisense kT*kG*kG*dA*dA*dA*dG*dG*dA*dA*dG*dA*d[5mC]*kT*k[5mC]*kG) [compound 800048]",
    "readout.name": "% inhibition of SMAD7 mRNA expression",
    "assay.value": 0
  },
  {
    "substance": "830025 (antisense TTTGTAAATCGAAAGC; 3-10-3 cEt gapmer, further chemistry not given here) [compound 830025]",
    "readout.name": "% inhibition of SMAD7 mRNA expression",
    "assay.value": 42
  },
  {
    "substance": "798733 (antisense k[5mC]*kG*k[5mC]*dG*dG*d[5mC]*dT*dG*dG*d[5mC]*dG*dG*dG*kT*kG*kG) [compound 798733]",
    "readout.name": "% inhibition of SMAD7 mRNA expression",
    "assay.value": 58
  },
  {
    "substance": "772578 (kG*kG*kT*dA*dT*d[5mC]*dT*dG*dG*dA*dG*dT*dA*kA*kG*kG; antisense) [compound 772578]",
    "readout.name": "% inhibition of SMAD7 mRNA expression",
    "assay.value": 54
  }
]
